- target of assay: T1, human eosinophil eotaxin receptor CC CKR3, stably expressed in AML14.3D10 cells (human, UniProt P51677 1-355)
- T1 construct: Full-length cDNA in pBJ/NEO transfected into the AML14.3D10 eosinophilic line; also called AML14/CCCKR3.16
- T1 sequence: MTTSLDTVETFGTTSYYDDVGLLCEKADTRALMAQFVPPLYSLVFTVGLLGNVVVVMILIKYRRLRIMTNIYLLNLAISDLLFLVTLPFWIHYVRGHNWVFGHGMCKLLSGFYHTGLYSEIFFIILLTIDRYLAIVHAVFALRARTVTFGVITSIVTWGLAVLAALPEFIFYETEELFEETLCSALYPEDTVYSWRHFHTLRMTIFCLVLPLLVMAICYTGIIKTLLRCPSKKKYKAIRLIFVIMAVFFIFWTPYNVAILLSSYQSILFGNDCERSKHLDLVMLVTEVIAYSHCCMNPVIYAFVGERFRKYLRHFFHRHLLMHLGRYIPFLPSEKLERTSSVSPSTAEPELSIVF
- experimental details: competition against 125I-MCP-3, intact AML14.3D10 cells expressing CC CKR3
attribute measured: pKd
Worth noting: pKd values are minus log10 of concentrations stated in mol/L.

Enquiry: Fill in the blank: the reported pKd of murine eotaxin (ligand, UniProt P48298 24-97, looked up) HPGSIPTSCCFIMTSKKIPNTLLKSYKRITNNRCTLKAIVFKTRLGKEICADPKKKWVQDATKHLDQKLQTPKP is ____.
Return: 9.52

Enquiry: Consider the binder RANTES (ligand, UniProt P13501 24-91, looked up) SPYSSDTTPCCFAYIARPLPRAHIKEYFYTSGKCSNPAVVFVTRKNRQVCANPEKKWVREYINSLEMS and give its measured pKd.
Return: 9.30
